Just for reference, paper PMC7582822 is where these values come from.

biological target: human recombinant DPP-IV enzyme (Homo sapiens, UniProt P27487); construct: purchased Cayman Chemical; assay: DPP-IV inhibitor screening assay (Cayman kit, fluorogenic H-Gly-Pro-AMC substrate); type: biochemical; conditions: dose-response curves, mean ± SD of three independent experiments; read-out: IC50, effect on DPP-IV activity (Figure 3)
Sequence (P27487 whole entry): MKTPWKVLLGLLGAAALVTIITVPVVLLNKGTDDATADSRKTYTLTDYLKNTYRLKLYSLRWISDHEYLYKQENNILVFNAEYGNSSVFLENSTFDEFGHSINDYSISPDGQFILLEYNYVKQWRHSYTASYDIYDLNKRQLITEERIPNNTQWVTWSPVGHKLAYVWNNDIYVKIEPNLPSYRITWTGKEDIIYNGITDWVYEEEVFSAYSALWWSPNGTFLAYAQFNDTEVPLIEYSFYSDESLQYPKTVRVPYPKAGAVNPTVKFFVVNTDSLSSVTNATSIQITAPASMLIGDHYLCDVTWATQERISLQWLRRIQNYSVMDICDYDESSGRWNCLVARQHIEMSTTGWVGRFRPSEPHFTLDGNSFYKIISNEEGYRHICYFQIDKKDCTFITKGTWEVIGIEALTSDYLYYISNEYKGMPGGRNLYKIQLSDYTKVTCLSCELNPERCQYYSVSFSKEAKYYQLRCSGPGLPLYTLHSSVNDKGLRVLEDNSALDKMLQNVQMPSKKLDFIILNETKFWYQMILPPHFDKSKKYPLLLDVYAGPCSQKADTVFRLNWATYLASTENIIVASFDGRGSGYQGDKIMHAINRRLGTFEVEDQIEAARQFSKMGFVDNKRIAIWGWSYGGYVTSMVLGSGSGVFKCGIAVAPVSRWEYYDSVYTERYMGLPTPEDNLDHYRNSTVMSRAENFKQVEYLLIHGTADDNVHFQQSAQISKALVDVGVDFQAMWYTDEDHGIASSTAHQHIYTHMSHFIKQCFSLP
valueKind: IC50 (µM)
Give a bare numeral; the unit µM is implied.

Requested read-out: IC50. Entry: COc1c(O)ccc(C(=O)/C=C/c2ccc(O)c(O)c2)c1O
9.55
